- Tested target: DLG4_3, P78352
- Sequence (P78352 306-403): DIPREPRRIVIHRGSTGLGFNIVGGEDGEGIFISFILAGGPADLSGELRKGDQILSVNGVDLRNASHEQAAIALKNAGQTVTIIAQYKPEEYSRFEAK
- Experiment summary: holdup assay
- Set-up: key: below the threshold = too weak to quantify, mostly under pKd 3.1 to 4
- Setup conditions: plain residues with an end cap or a label only (N-terminal biotin on a linker: ttds)

>  <Binder>
PKTPPTDTSV [KIR3DL3, Q8N743]

>  <pKd>
below the threshold

$$$$
>  <Binder>
IYVPEAQTRL [DLGAP4, Q9Y2H0]

>  <pKd>
below the threshold

$$$$
>  <Binder>
GQDSREETQL [KCNT2, Q6UVM3]

>  <pKd>
below the threshold

$$$$
